substrate: PET; assay: Proxy for plastic degradation [Released monomer concentration (HPLC/LC-MS) (TPA)]; conditions: pH 8
readoutType: Proxy for plastic degradation (mM/mg)
Answer format: numeric, mM/mg implied, no suffix.

The recorded Proxy for plastic degradation for entry unnamed (protein) MFRFHIVSALLTLFIAVPSQAHDVGQREIKISGAEPGRNLEVSVWYPAAIDGKATLIGDNIIFKGAPAVIDATPEKGSFPLLVMSHGSGGRAQGMAWLATELVKAGIIVAAPNHPGTTSGDSTPQDTPKIWQRTGDLSAVIDTMTTDPAWSGIIDKNKISVLGFSLGGAAAMEIAGARANLEAYARYCDTYGKWDCAWYAGGIGYRDDKQIKVDKVDLRSVDKSRFEQSNLDRRIASAIMIDPGLAQAYDAQSLASISIPMSFINLGEVETIPTGVVADKLASITPQGTYVTVAGATHFSFLPECKKGAADRLKSAGEVDPICSDDARRPRADIHADITKLVLKALQSMPKT equals 0.8

Looking up unnamed (protein) MFRFHIVSALLTLFIAVPSQAHDVGQREIKISGAEPGRNLEVSVWYPAAIDGKATLIGDNIIFKGAPAVIDATPEKGSFPLLVMSHGSGGRAQGMAWLATELVKAGIIVAAPNHPGTTSGDSTPQDTPKIWQRTGDLSAVIDTMTTDPAWSGIIDKNKISVLGFSMGGAAAMEIAGARANLEAYARYCDTYGKWDCAWYAGGIGYRDDKQIKVDKVDLRSVDKSRFEQSNLDRRIASAIMIDPGLAQAYDAQSLASISIPMSFINLGEVETIPTGVVADKLASITPQGTYVTVAGATHISFLPECKKGAADRLKSAGEVDPICSDDARRPRADIHADITKLVLKALQSMPKT , I found its Proxy for plastic degradation recorded as 1.5
